target: human activated tissue kallikrein (Homo sapiens, UniProt P06870); construct: 6xHis (C); experiment: Measurement of tissue kallikrein inhibitory activity; conditions: activated tissue kallikrein activity (initial rate) inhibited by 50%; substrate D-valyl-L-leucyl-L-arginyl-p-nitroanilide; 37° C.
Sequence (P06870 25-262): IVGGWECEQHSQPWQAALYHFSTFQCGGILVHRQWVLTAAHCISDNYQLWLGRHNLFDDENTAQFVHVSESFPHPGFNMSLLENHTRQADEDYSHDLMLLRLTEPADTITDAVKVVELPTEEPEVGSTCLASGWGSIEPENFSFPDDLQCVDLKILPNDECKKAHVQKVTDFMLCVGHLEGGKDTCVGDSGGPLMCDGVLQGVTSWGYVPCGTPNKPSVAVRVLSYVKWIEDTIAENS
Structures can show the parent of a compound that is named as a salt.
Just a reminder that ties go to false (0): only IC50 strictly below 90 nM counts as true (1).

IC50 strictly < 90 nM for this molecule? CC(C)[C@H](CNC(=O)C1(c2ccccc2)CC1)Nc1ccc(C(F)(F)F)cc1 [Compound A-16]
false (0)

IC50 strictly < 90 nM for this molecule? CC(C)[C@H](CNC(=O)[C@@H](C)N)Nc1ccc(C(F)(F)F)cc1 [Compound A-17]
false (0)

IC50 strictly < 90 nM for this molecule? CC(C)[C@H](CNC(=O)[C@H](N)Cc1c[nH]c2ccccc12)Nc1ccc(C(F)(F)F)cc1N [Compound A-60]
false (0)

IC50 strictly < 90 nM for this molecule? CC(C)[C@H](CCNC(=O)Cc1c[nH]c2ccccc12)Nc1ccc(C(F)(F)F)cc1 [Compound A-51]
false (0)

IC50 strictly < 90 nM for this molecule? CC(C)[C@H](CC(=O)NCc1ccccn1)Nc1ccc(C(F)(F)F)cc1 [Compound C-41]
false (0)

IC50 strictly < 90 nM for this molecule? CC(C)[C@H](CCNC(=O)c1ccccc1)Nc1ccc(C(F)(F)F)cc1 [Compound A-47]
false (0)

IC50 strictly < 90 nM for this molecule? CC(C)[C@H](CNC(=O)Cc1ccccc1)Nc1ccc(C(F)(F)F)cc1N [Compound A-56, trifluoroacetate]
true (1)

IC50 strictly < 90 nM for this molecule? CC(C)[C@H](CCNC(=O)c1ccc2ncccc2c1)Nc1ccc(C(F)(F)F)cc1 [Compound A-49]
true (1)

IC50 strictly < 90 nM for this molecule? CC(C)[C@H](CNC(=O)[C@@H](O)c1ccccc1)Nc1ccc(C(F)(F)F)cc1 [Compound A-11]
false (0)

IC50 strictly < 90 nM for this molecule? CC(C)[C@H](CNC(=O)Cc1ccccc1)Nc1ccc(C(F)(F)F)cc1 [Compound A-1, trifluoroacetate]
true (1)

IC50 strictly < 90 nM for this molecule? CC(C)[C@H](CNC(=O)Cc1ccccn1)Nc1ccc(C(F)(F)F)cc1N [Compound A-59]
true (1)

IC50 strictly < 90 nM for this molecule? CC(C)[C@H](CNC(=O)C1CCN(c2ccncc2)CC1)Nc1ccc(C(F)(F)F)cc1 [Compound A-14]
false (0)

IC50 strictly < 90 nM for this molecule? CC(C)[C@H](CNC(=O)[C@@H](N)C(C)C)Nc1ccc(C(F)(F)F)cc1 [Compound A-15]
false (0)

IC50 strictly < 90 nM for this molecule? CC(C)[C@H](CNC(=O)[C@@H](N)CO)Nc1ccc(C(F)(F)F)cc1 [Compound A-18]
false (0)

IC50 strictly < 90 nM for this molecule? CC(C)[C@H](CNC(=O)Cc1cccnc1)Nc1ccc(C(F)(F)F)cc1 [Compound A-7]
true (1)

IC50 strictly < 90 nM for this molecule? CCCN1CCC(O)c2cc(C(F)(F)F)ccc21 (centres unmarked) [Compound E-3]
false (0)

IC50 strictly < 90 nM for this molecule? O=C(Cc1c[nH]c2ccccc12)NC[C@H]1CCCN1c1ccc(C(F)(F)F)cc1 [Compound A-41]
false (0)

IC50 strictly < 90 nM for this molecule? CC(C)[C@H](CNC(=O)CCN)Nc1ccc(C(F)(F)F)cc1 [Compound A-3]
true (1)

IC50 strictly < 90 nM for this molecule? CC(C)[C@H](CC(=O)NCCc1ccccc1)Nc1ccc(C(F)(F)F)cc1 [Compound C-42]
false (0)

IC50 strictly < 90 nM for this molecule? CC(C)[C@H](CNC(=O)Cc1c[nH]c2ccccc12)Nc1ccc(C(F)(F)F)cc1 [Compound A-4]
true (1)

IC50 strictly < 90 nM for this molecule? CC(C)[C@H](CCNC(=O)C1CCN(C(C)C)CC1)Nc1ccc(C(F)(F)F)cc1 [Compound A-52]
false (0)

IC50 strictly < 90 nM for this molecule? CC(C)[C@H](CNC(=O)Cc1c[nH]c2ccccc12)Nc1ccc(C(F)(F)F)cc1N [Compound A-58]
true (1)

IC50 strictly < 90 nM for this molecule? CC(C)[C@H](CCNC(=O)C1CCN(c2ccncc2)CC1)Nc1ccc(C(F)(F)F)cc1 [Compound A-48]
true (1)

IC50 strictly < 90 nM for this molecule? CC(C)[C@H](CNC(=O)[C@@H](N)Cc1c[nH]c2ccccc12)Nc1ccc(C(F)(F)F)cc1N [Compound A-57]
true (1)

IC50 strictly < 90 nM for this molecule? CC(C)[C@H](CNC(=O)/C=C/c1ccncc1)Nc1ccc(C(F)(F)F)cc1 [Compound A-13]
false (0)

IC50 strictly < 90 nM for this molecule? CC(C)[C@H](CNC(=O)Cc1ccccc1)Nc1ccc(C(F)(F)F)cc1CO [Compound A-55]
true (1)

IC50 strictly < 90 nM for this molecule? CC(C)[C@H](CNC(=O)[C@H](N)c1ccccc1)Nc1ccc(C(F)(F)F)cc1 [Compound A-9]
false (0)

IC50 strictly < 90 nM for this molecule? CC(C(=O)NC[C@H](Nc1ccc(C(F)(F)F)cc1)C(C)C)c1ccc(-c2ccccc2)c(F)c1 (some centres unmarked) [Compound A-6]
true (1)

IC50 strictly < 90 nM for this molecule? O=C(Cc1ccccc1)NC[C@@H]1CCCN1c1ccc(C(F)(F)F)cc1 [Compound A-40]
false (0)

IC50 strictly < 90 nM for this molecule? CC(C)[C@H](CNC(=O)C(=O)c1c[nH]c2ccccc12)Nc1ccc(C(F)(F)F)cc1 [Compound A-12]
false (0)
